- TARGET SYSTEM: Neuropeptide Y receptor type 5 (Rattus norvegicus)
- EXPERIMENTAL DETAILS: Inhibition of PYY effect on forskolin-stimulated cyclic AMP formation in C6 cells expressing rat NPY Y5 receptor
- Assay type: functional, cell-based
- Design: concentration or dose not given beside the values
- REPORTED CONDITIONS: concentration not given here
Reported inhibition is given for each of the following molecules.

- MOLECULE: "Cc1ccc2c(c1)COC(=O)N2C1CCN(CC(=O)Nc2ccc(Oc3ccccc3)cc2)CC1"
  TARGET SYSTEM: "Neuropeptide Y receptor type 5 (Rattus norvegicus)"
  MEASURE UNIT: "%"
  inhibition: 94.5
- MOLECULE: "O=C(CN1CCC(N2C(=O)OCc3cc(Cl)ccc32)CC1)Nc1ccc(Oc2ccccc2)cc1"
  TARGET SYSTEM: "Neuropeptide Y receptor type 5 (Rattus norvegicus)"
  MEASURE UNIT: "%"
  inhibition: 99.2
- MOLECULE: "CC(=O)c1ccc(NC(=O)CN2CCC(N3C(=O)OCc4cc(C)ccc43)CC2)cc1"
  TARGET SYSTEM: "Neuropeptide Y receptor type 5 (Rattus norvegicus)"
  MEASURE UNIT: "%"
  inhibition: 89.4
- MOLECULE: "O=C(CN1CCC(N2C(=O)OCc3cc(Cl)ccc32)CC1)Nc1ccc2c(c1)-c1ccccc1C2O (centres undefined)"
  TARGET SYSTEM: "Neuropeptide Y receptor type 5 (Rattus norvegicus)"
  MEASURE UNIT: "%"
  inhibition: 100
- MOLECULE: "COc1cccc2c1N(C1CCN(CC(=O)Nc3ccc4oc5ccccc5c4c3)CC1)C(=O)OC2"
  TARGET SYSTEM: "Neuropeptide Y receptor type 5 (Rattus norvegicus)"
  MEASURE UNIT: "%"
  inhibition: 23.6
- MOLECULE: "O=C(CN1CCC(N2C(=O)OCc3cc(Cl)ccc32)CC1)Nc1ccc2ncccc2c1"
  TARGET SYSTEM: "Neuropeptide Y receptor type 5 (Rattus norvegicus)"
  MEASURE UNIT: "%"
  inhibition: 71.9
- MOLECULE: "O=C(CN1CCC(N2C(=O)OCc3cc(Cl)ccc32)CC1)Nc1ccc(C2CCCCC2)cc1"
  TARGET SYSTEM: "Neuropeptide Y receptor type 5 (Rattus norvegicus)"
  MEASURE UNIT: "%"
  inhibition: 98.4
- MOLECULE: "CCn1c2ccccc2c2cc(NC(=O)CN3CCC(N4C(=O)OCc5c(Cl)cccc54)CC3)ccc21"
  TARGET SYSTEM: "Neuropeptide Y receptor type 5 (Rattus norvegicus)"
  MEASURE UNIT: "%"
  inhibition: 83.4
- MOLECULE: "Cc1cccc2c1N(C1CCN(CC(=O)Nc3ccc4c(c3)-c3ccccc3C4=O)CC1)C(=O)OC2"
  TARGET SYSTEM: "Neuropeptide Y receptor type 5 (Rattus norvegicus)"
  MEASURE UNIT: "%"
  inhibition: 93.8

----------
- TARGET SYSTEM: UniProt Q63634
- Sequence (Q63634 whole entry): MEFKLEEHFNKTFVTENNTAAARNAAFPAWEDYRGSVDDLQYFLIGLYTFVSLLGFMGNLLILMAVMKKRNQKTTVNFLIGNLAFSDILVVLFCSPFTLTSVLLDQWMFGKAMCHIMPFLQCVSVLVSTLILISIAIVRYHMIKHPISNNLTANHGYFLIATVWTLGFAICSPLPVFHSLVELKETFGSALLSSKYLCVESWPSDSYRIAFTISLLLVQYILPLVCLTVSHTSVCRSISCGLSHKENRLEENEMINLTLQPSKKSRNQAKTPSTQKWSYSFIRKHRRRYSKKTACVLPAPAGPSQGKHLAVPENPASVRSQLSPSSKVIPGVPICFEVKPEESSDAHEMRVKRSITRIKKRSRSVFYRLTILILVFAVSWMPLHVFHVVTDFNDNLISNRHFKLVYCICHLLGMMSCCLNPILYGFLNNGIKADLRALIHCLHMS
- EXPERIMENTAL DETAILS: Inhibition of [125I]PYY binding to the rat NPY Y5 receptor in C6 cells
pIC50: −log10 of the molar value.
Label Y when pIC50 is at or above 7; anything below gets N.

- STRUCTURE SMILES: "Cc1cccc2c1N(C1CCN(CC(=O)Nc3ccc(C(=O)c4ccccc4)cc3)CC1)C(=O)OC2"
  TARGET SYSTEM: "UniProt Q63634"
  CATEGORY: "Y"
- STRUCTURE SMILES: "CC(=O)c1ccc(NC(=O)CN2CCC(N3C(=O)OCc4cc(Cl)ccc43)CC2)cc1"
  TARGET SYSTEM: "UniProt Q63634"
  CATEGORY: "Y"
- STRUCTURE SMILES: "O=C(CN1CCC(N2C(=O)OCc3cc(Cl)ccc32)CC1)Nc1ccc(C(=O)c2ccccc2)cc1"
  TARGET SYSTEM: "UniProt Q63634"
  CATEGORY: "Y"
- STRUCTURE SMILES: "COC(=O)c1ccccc1NC(=O)CN1CCC(N2C(=O)OCc3ccccc32)CC1"
  TARGET SYSTEM: "UniProt Q63634"
  CATEGORY: "N"
- STRUCTURE SMILES: "COC(=O)c1ccccc1NC(=O)CN1CCC(N2C(=O)OCc3cc(Cl)ccc32)CC1"
  TARGET SYSTEM: "UniProt Q63634"
  CATEGORY: "N"
- STRUCTURE SMILES: "CCn1c2ccccc2c2cc(NC(=O)CN3CCC(N4C(=O)OCc5cccc(OC)c54)CC3)ccc21"
  TARGET SYSTEM: "UniProt Q63634"
  CATEGORY: "N"

These data points were gathered from ChEMBL document CHEMBL1145203.
